- Tested on: SK-MEL-28 melanoma
- protocol.notes: NCI tumour cell line growth inhibition, 48 h
Give TGI for every item shown.

Q) What TGI value was documented for this compound, c1cc[n+](Cc2c3ccccc3cc3c2ccc2ccccc23)cc1 ?
A) 5.5 µM

Q) What TGI value was documented for this compound, O=C(O)C1=Cc2cccc3cccc(c23)C1=O ?
A) > 100 µM

Q) What TGI value was documented for this compound, CC(C)CCNC(=O)c1ccc(CNC(=O)/C=C/c2ccc3ccccc3c2)cc1 ?
A) > 100 µM

Q) What TGI value was documented for this compound, Cc1cn(C2CC(O)C(Cn3nncc3Cn3cnc4c(N)ncnc43)O2)c(=O)[nH]c1=O (stereo not drawn) ?
A) > 100 µM

Q) What TGI value was documented for this compound, COc1ccc(-c2cc(=O)c3c(OC)c4ccoc4c(/C=C/C=O)c3o2)cc1 ?
A) 7.1 µM

Q) What TGI value was documented for this compound, CC(=O)OC(C(=O)[O][Ge]([CH3])([CH3])[CH3])c1ccccc1 (stereo not drawn) ?
A) > 100 µM

Q) What TGI value was documented for this compound, COc1cc(-c2oc3c(OC)c(O)c(OC)c(O)c3c(=O)c2OC)cc(OC)c1OC ?
A) > 100 µM

Q) What TGI value was documented for this compound, CCOC(=O)/C=C(/C(=O)OCC)n1ccc(=O)n(Cc2cn(CCCCOC(C)=O)nn2)c1=O ?
A) > 100 µM

Q) What TGI value was documented for this compound, COc1cc2c(Nc3ccc(-c4ccc(N)cc4)cc3)ncnc2c(OC)c1OC ?
A) > 100 µM

Q) What TGI value was documented for this compound, NNC(=O)/C(NC(=O)c1ccccc1)=C(\N)c1cccc([N+](=O)[O-])c1 ?
A) > 100 µM

Q) What TGI value was documented for this compound, Nc1c(S(=O)(=O)O)cc(S(=O)(=O)O)c2ccc(N=Nc3ccccc3)c(O)c12 ?
A) > 100 µM

Q) What TGI value was documented for this compound, Cc1cc(NS(=O)(=O)c2ccc(NO)cc2)no1 ?
A) > 100 µM

Q) What TGI value was documented for this compound, CC1CC(C)(O)C2C3(C)CCCC2(COC3=O)C12CCC1(CCOC1=O)O2 (stereo not drawn) ?
A) > 250 µM

Q) What TGI value was documented for this compound, N#Cc1ccc(C2OCC3CC=CCC3CO2)cc1 (stereo not drawn) ?
A) > 100 µM

Q) What TGI value was documented for this compound, COc1cc(/C=C2\CCC/C(=C\c3cc(CN4CCCC4)c(O)c(OC)c3)C2=O)cc(CN2CCCC2)c1O ?
A) 22.7 µM

Q) What TGI value was documented for this compound, C#CN1C(=O)c2c(c(-c3ccccc3)c(-c3ccc(Oc4ccc(-c5c(-c6ccccc6)c6c(c(-c7ccccc7)c5-c5ccccc5)C(=O)N(C#C)C6=O)cc4)cc3)c(-c3ccccc3)c2-c2ccccc2)C1=O ?
A) > 100 µM

Q) What TGI value was documented for this compound, Nc1ccc(Oc2ccc(C34CC5C6CC7(c8ccc(Oc9ccc(N)cc9)cc8)CC5C(C3)C(C7)C6C4)cc2)cc1 ?
A) > 100 µM

Q) What TGI value was documented for this compound, CCCCC/C=C\C=C\CCCCCCCCC(=O)OC ?
A) > 100 µM

====

- Test system: MDA-MB-435
- protocol.notes: NCI tumour cell line growth inhibition, 48 h
experimental.endpoint: TGI (µM)
Field format: number, assumed µM, no unit text.

Q) What TGI value was documented for this molecule, CC1=CC2(C)C=C[C@@H]1C(=O)[C@@]1(C)CC[C@@](O)(C(C)C)[C@H]1CC2 ?
A) 43.2

Q) What TGI value was documented for this molecule, Cc1cc(O)ccc1C1(c2ccc(O)cc2C)OC(=O)c2ccccc21 ?
A) 29.7

Q) What TGI value was documented for this molecule, COc1cc2c(Nc3ccc(-c4ccc(N)cc4)cc3)ncnc2c(OC)c1OC ?
A) 47.1

Q) What TGI value was documented for this molecule, Clc1nc(Cl)c2ncn(-c3ccccc3)c2n1 ?
A) 13.2

Q) What TGI value was documented for this molecule, O=C1CC(n2ccnc2)c2c(Cl)sc(Cl)c21 (stereo not drawn) ?
A) 49.6

Q) What TGI value was documented for this molecule, O=C(Cc1cc(O)ccc1O)NO ?
A) 31.2
